METHOD DESCRIPTION: Plasma stability assay, rat serum
Type: in vitro ADME
RECORDED CONDITIONS: pH 7.4, 37° C.

[
  {
    "COMPOUND": "Cc1ccc(C2(NC(=O)C3C(C(=O)NCCN4CCN(C)CC4)C4CCC3C43CC3)CC2)cc1 (stereo not shown) [Example 1]",
    "half-life at 1 μM": "> 6 h"
  }
]

----------
MEASURED ON: recombinant human ALX receptor (Homo sapiens)
Sequence (P25090 1-351): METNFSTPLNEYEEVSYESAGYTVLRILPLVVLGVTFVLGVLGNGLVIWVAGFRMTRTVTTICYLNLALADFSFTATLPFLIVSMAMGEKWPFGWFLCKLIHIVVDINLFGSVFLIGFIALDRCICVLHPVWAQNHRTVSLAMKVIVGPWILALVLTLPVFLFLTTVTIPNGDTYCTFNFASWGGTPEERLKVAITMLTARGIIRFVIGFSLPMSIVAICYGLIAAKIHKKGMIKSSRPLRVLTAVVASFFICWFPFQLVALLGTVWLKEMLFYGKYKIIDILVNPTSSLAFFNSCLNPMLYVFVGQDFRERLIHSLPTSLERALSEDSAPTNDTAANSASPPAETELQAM
METHOD DESCRIPTION: Intracellular calcium measurements (FLIPR), ALX receptor agonistic activity
RECORDED CONDITIONS: HEK293-hALXR-Gα16 cells; median of n replications; normalized to WKYMVm 10 nM; read-out: EC50, agonistic activity with respect to the ALX receptor
READOUT NAME: EC50 (nM)

[
  {
    "COMPOUND": "Cc1ccc(C2(NC(=O)C3C(C(=O)NCCN4CCN(C)CC4)C4CCC3C43CC3)CC2)cc1 (stereo not shown)",
    "UNIT OF MEASUREMENT": "nM",
    "MEASURED VALUE": 9.4
  }
]
